The origin of these recorded values is PubChem BioAssay AID588342.

Target: Luciferin 4-monooxygenase (Photinus pyralis)
Assay: qHTS profiling assay for firefly luciferase inhibitor/activator using purifed enzyme and Km concentrations of substrates (counterscreen for miR-21 project); note: nearly all actives have a fitted effect of over 55% in size
Conditions: purified FLuc, luminescence inhibition; series mostly up to 57.5 µM
Source text: MLPCN Grant: 1 R21 NS059478-01 (miR-21 grant) Assay Provider: NCGC NCGC Assay Overview: Firefly (Photinus pyralis) luciferase is one of the most commonly used transcriptional reporters for a number of reasons. […] Although light produced in a bioluminescence reaction is of lower intensity than that produced during fluorescence emission, this is offset by little to no background light inherent to luminescent assays. […]
Among all 360,000 compounds or so, about 25,000 (6.9%) were called active. Inconclusive results (about 9%) are left out. Calls come from the whole dose curve; as a rule, active = well fitted inhibition curve with a large enough effect; inconclusive = small, poorly fitted or top-dose-only effect; inactive = flat fitted curve, though single readings scatter. For the sample, actives were picked, then their nearest neighbours and some compounds at random.
The reply should name one outcome from y (active), n (inactive)

Per the records of this test, what outcome belongs to COc1ccc(C(=O)NCc2nnc(SCCOc3ccccc3)n2C)cc1 ? n

###

molecular target: Luciferin 4-monooxygenase (Photinus pyralis) (UniProt P08659); test: qHTS profiling assay for firefly luciferase inhibitor/activator using purifed enzyme and Km concentrations of substrates (counterscreen for miR-21 project); conditions: purified FLuc, luminescence inhibition; series mostly up to 57.5 µM; note: nearly all actives have a fitted effect of over 55% in size
Sequence (P08659 whole entry, looked up): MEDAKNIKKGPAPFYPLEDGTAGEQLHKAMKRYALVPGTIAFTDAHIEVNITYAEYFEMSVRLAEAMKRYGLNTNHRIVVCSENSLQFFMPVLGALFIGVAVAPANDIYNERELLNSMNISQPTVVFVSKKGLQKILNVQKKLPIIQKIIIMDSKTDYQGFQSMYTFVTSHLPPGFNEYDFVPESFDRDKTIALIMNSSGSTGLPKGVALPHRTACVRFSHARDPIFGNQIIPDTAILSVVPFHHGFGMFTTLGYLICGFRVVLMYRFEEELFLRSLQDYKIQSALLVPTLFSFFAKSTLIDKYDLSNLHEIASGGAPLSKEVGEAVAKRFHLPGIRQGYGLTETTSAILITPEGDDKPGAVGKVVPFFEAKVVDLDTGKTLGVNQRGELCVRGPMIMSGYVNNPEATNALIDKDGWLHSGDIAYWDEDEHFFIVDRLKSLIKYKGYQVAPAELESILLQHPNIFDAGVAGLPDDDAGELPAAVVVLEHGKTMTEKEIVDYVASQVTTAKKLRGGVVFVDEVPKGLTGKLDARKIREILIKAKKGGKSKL
About 25,000 (6.9%) of roughly 360,000 compounds were called active. Inconclusive results (about 9%) are left out. The call rests on the fitted dose curve; in most records, active means well fitted inhibition curve with a large enough effect; inconclusive means small, poorly fitted or top-dose-only effect; inactive means flat fitted curve, though single readings scatter. The full list was thinned out, with actives kept by preference.
Please answer using one outcome listed in active, inactive

Hello, I am checking results. What call was entered for COCCCNC(=O)c1ccc(NC(=O)c2nsc3ccccc23)cc1 ? active

How was COC(=O)c1cnc(Nc2cc(C)ccc2OC)c2ccccc12 classified in this test? inactive

###

biological target: Luciferin 4-monooxygenase (Photinus pyralis) (UniProt P08659); test: qHTS profiling assay for firefly luciferase inhibitor/activator using purifed enzyme and Km concentrations of substrates (counterscreen for miR-21 project); details: purified FLuc, luminescence inhibition; series mostly up to 57.5 µM; note: nearly all actives have a fitted effect of over 55% in size
Screen size: about 360,000 compounds; about 25,000 (6.9%) were called active. About 9% were inconclusive and are not listed. Calls come from the whole dose curve; as a rule, active = well fitted inhibition curve with a large enough effect; inconclusive = small, poorly fitted or top-dose-only effect; inactive = flat fitted curve, though single readings scatter. The full list was thinned out, with actives kept by preference.
Allowed answers: T = active, F = inactive

Answered cases to consult:
Compound | Target | Class Assignment
O=C(O)CS/C(=C\c1ccc(F)cc1)c1nc2ccccc2s1 | Luciferin 4-monooxygenase (Photinus pyralis) (UniProt P08659) | T
O=C(O)CC/C(=C\c1cc2c(cc1Br)OCO2)c1nc2ccccc2s1 | Luciferin 4-monooxygenase (Photinus pyralis) (UniProt P08659) | F
Cc1nc(NC2=NC(C(=O)Nc3ccc(Cl)cc3)CC(=O)N2)nc2ccccc12 (stereo not given) | Luciferin 4-monooxygenase (Photinus pyralis) (UniProt P08659) | F

I'd appreciate the recorded outcome for CC(C)Oc1ccc(CNC(=O)C2CCN(c3nc4ccccc4n(C)c3=O)CC2)cc1 from this test. F

How did this test come out for CCc1ccccc1NC(=O)Cn1c(=O)n(-c2cccc(C)c2)c(=O)c2c1c1cc(OC)ccc1n2C ? F

Tell me the recorded outcome of this test for CSc1ccc(CCNC(=O)c2cnn(-c3ccccc3)c2-n2cccc2)cc1 . F

Would you mind telling me which call this test gave CC1CCC(N2CC(=O)N(CCC3=CCCCC3)C(c3ccc(F)cc3)C2=O)CC1 (stereo not given) ? F

Assay outcome for CC(=O)N/C(=C\c1ccc(F)cc1)C(=O)NC(Cc1ccccc1)C(=O)O (stereo not given) : what was it? F

Hi team, can someone confirm the assay call for Cn1c(=O)c2c(n(Cc3ccccc3)c1=O)NC(=O)C2CC(=O)N1CCc2ccccc2C1 (stereo not given) ? F

For Cc1nnsc1C(=O)NCc1c(F)cccc1Cl , what call appears in the results of this test? F
